B1: Azoarcus group I ribozyme (parent)
chain: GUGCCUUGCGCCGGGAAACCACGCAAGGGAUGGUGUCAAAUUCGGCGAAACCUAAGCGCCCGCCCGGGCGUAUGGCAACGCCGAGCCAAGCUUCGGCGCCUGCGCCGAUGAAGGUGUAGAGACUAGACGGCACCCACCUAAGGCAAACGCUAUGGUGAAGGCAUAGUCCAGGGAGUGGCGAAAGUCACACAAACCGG

Variants of: B1
EXPERIMENTAL_DETAILS: reverse-splicing fitness (ratio to wild type); higher = more active; in vitro selection; Mg2+ level not given
Kindly supply the reported reverse-splicing fitness values for the records listed here.
Respond using a number only.

Inquiry: Quick one: give measured reverse-splicing fitness for C82U A111G A120C A145C C150U U176G
Reply text: 0.00465

Inquiry: Quick one: give measured reverse-splicing fitness for C82A A145C C150U C169G U176A
Reply text: 0.0196

Inquiry: Quick one: give measured reverse-splicing fitness for C82G A120U C150U C169G
Reply text: 0.00527

Inquiry: Quick one: give measured reverse-splicing fitness for C82G A111C A120U C150U C169G
Reply text: 0.00542

Inquiry: Quick one: give measured reverse-splicing fitness for A111G A120U A145U C169A U176G
Reply text: 0.00131

Inquiry: Quick one: give measured reverse-splicing fitness for A120G A145U C150U C169U U176G
Reply text: 0.0135

Inquiry: Quick one: give measured reverse-splicing fitness for C82U A111G A120C A145C C150G C169U U176C
Reply text: 0.0112

Inquiry: Quick one: give measured reverse-splicing fitness for C82A A111G A120U A145C U176G
Reply text: 0.00284

Inquiry: Quick one: give measured reverse-splicing fitness for C82A A111U A120C A145G C150G C169U U176G
Reply text: 0.00787

Inquiry: Quick one: give measured reverse-splicing fitness for C82U A111C A120U A145C C169U U176G
Reply text: 0.00205

Inquiry: Quick one: give measured reverse-splicing fitness for A111G A120U C150A C169U U176G
Reply text: 0.00282

Inquiry: Quick one: give measured reverse-splicing fitness for C82U A111C A120G A145U C150G C169A
Reply text: 0.00828

Inquiry: Quick one: give measured reverse-splicing fitness for A111U A145C C150U
Reply text: 0.661

Inquiry: Quick one: give measured reverse-splicing fitness for C82U A111U A120U C150U C169G U176A
Reply text: 0.00732

Inquiry: Quick one: give measured reverse-splicing fitness for C82U A111C A120G C150A C169U
Reply text: 0.00789

Inquiry: Quick one: give measured reverse-splicing fitness for C82U A120C C150A U176G
Reply text: 0.00583

Inquiry: Quick one: give measured reverse-splicing fitness for A111C A120C A145C C150G C169U U176G
Reply text: 0.0054

Inquiry: Quick one: give measured reverse-splicing fitness for C82G A111C A120U A145C C150U C169U U176G
Reply text: 0.00249

Inquiry: Quick one: give measured reverse-splicing fitness for C82A A120G A145G U176C
Reply text: 0.021

Inquiry: Quick one: give measured reverse-splicing fitness for C82A A111U A120G A145C C150U U176G
Reply text: 0.00589

Inquiry: Quick one: give measured reverse-splicing fitness for A111U A120U C150A C169U U176C
Reply text: 0.0045

Inquiry: Quick one: give measured reverse-splicing fitness for C82U A111C A120G A145C C150G C169U U176A
Reply text: 0.00949

Inquiry: Quick one: give measured reverse-splicing fitness for A120C C150A U176A
Reply text: 0.184

Inquiry: Quick one: give measured reverse-splicing fitness for A111G A120C A145G C150G U176G
Reply text: 0.00497

Inquiry: Quick one: give measured reverse-splicing fitness for C82A A111G A120C A145G
Reply text: 0.0444

Inquiry: Quick one: give measured reverse-splicing fitness for C82U A111G A120C C150G C169A U176A
Reply text: 0.00865

Inquiry: Quick one: give measured reverse-splicing fitness for C82G A120C A145U C169A
Reply text: 0.00673

Inquiry: Quick one: give measured reverse-splicing fitness for C82U A111U A145G C169U
Reply text: 0.0114

Inquiry: Quick one: give measured reverse-splicing fitness for C82G A111U A145C C150A U176C
Reply text: 0.0187
